// values below are reported IC50
measured target: Serine/threonine-protein kinase B-raf (Homo sapiens, UniProt P15056, V600E)
Sequence (P15056 2-766 V600E limits assumed): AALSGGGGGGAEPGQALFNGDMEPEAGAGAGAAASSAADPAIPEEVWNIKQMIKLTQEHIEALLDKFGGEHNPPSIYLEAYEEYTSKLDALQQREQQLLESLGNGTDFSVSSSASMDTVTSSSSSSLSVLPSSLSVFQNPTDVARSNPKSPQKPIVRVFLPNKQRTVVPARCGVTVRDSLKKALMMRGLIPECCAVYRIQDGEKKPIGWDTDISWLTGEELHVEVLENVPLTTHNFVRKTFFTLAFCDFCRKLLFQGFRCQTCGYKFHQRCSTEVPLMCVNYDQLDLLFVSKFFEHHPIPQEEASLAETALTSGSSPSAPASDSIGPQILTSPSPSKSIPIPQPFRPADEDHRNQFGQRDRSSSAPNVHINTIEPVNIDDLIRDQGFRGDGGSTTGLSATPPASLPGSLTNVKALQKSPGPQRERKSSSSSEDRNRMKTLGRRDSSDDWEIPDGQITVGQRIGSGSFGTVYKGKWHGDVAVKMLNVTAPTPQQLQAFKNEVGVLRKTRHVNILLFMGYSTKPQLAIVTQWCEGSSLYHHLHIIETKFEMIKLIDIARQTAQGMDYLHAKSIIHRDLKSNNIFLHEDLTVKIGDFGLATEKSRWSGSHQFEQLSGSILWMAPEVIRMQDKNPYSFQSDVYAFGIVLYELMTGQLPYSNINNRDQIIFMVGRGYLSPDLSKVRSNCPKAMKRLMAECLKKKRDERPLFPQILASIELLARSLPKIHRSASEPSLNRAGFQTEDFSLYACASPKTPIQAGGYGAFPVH
State the answer as a number, implicitly in nM.

# count of solved cases: 2
>>> reading("CCCS(=O)(=O)Nc1ccc(F)c(C(=O)Nc2cnc3[nH]nc(OC)c3c2)c1F")
5
>>> reading("CCCS(=O)(=O)Nc1ccc(F)c(C(=O)Nc2cnc3cc(NC)nn3c2)c1F")
129

Given the entry CCCS(=O)(=O)Nc1ccc(F)c(C(=O)Nc2cnc3cc[nH]c3c2)c1F , what IC50 was observed with Serine/threonine-protein kinase B-raf (Homo sapiens, UniProt P15056, V600E)?
407

Value wanted: IC50 (Serine/threonine-protein kinase B-raf (Homo sapiens, UniProt P15056, V600E)) of entry CCCS(=O)(=O)Nc1ccc(F)c(C(=O)Nc2cnc3cc(CC)nn3c2)c1F
105

Hello, I am looking for reported IC50 with Serine/threonine-protein kinase B-raf (Homo sapiens, UniProt P15056, V600E) for CCCS(=O)(=O)Nc1ccc(F)c(C(=O)Nc2cnc3cc(C4CC4)nn3c2)c1F . Could you help?
124

Missing value: IC50, Serine/threonine-protein kinase B-raf (Homo sapiens, UniProt P15056, V600E), entry CCCS(=O)(=O)Nc1ccc(F)c(C(=O)Nc2cnc3cc(OC)nn3c2)c1F . Fill in?
43

What measured IC50 is associated with CCCS(=O)(=O)Nc1ccc(F)c(C(=O)Nc2cnc3cc(-c4ccc(F)cc4)nn3c2)c1F on Serine/threonine-protein kinase B-raf (Homo sapiens, UniProt P15056, V600E)?
11

So what IC50 did CCCS(=O)(=O)Nc1ccc(F)c(C(=O)Nc2cnc3cc(-c4cccnc4)nn3c2)c1F get with Serine/threonine-protein kinase B-raf (Homo sapiens, UniProt P15056, V600E)?
13

Please tell me: IC50 of CCCS(=O)(=O)Nc1ccc(F)c(C(=O)Nc2cnc3cc(C(F)(F)F)nn3c2)c1F , system Serine/threonine-protein kinase B-raf (Homo sapiens, UniProt P15056, V600E)?
126
